# Experimental system: His-hMAGL (recombinant polyhistidine tagged human MAGL protein) (Homo sapiens)
# Construct: made in house; host or cells: E. coli BL21(DE3)
# Sequence (Q99685 whole entry): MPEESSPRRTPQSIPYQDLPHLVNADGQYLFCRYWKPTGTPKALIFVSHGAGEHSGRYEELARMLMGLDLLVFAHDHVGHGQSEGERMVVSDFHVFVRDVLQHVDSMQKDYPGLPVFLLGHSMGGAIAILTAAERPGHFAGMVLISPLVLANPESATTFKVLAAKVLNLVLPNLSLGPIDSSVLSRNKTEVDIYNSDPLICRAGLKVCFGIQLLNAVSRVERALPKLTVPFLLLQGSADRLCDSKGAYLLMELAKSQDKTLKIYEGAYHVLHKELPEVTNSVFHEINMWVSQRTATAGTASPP
# Experiment notes: Measurement of MAGL inhibitory activity (arachidonic acid production from 2-arachidonylglycerol, RapidFire-mass spectrometry)
# Type: biochemical
# Measurement setup: MAGL inhibitory rate, test compound 10 μM, 60 min preincubation, 2-arachidonylglycerol substrate
Property name: inhibition at 10 µM (%)
Please reply with the bare figure in % and do not write the unit itself.

O=C1COCC2(CN(C(=O)c3sc4cc(C(F)(F)F)ccc4c3Cl)C2)N1 99
O=C1CCC2(CN(C(=O)c3sc4cc(Br)ccc4c3Cl)C2)N1 99
O=C1NC2(CO1)CN(C(=O)c1sc3cc(C(F)(F)F)cc(OC(F)F)c3c1Cl)C2 100

Query compound follows.
Data request: Name the recorded inhibition at 10 µM for "O=C1CCC2(CN(C(=O)c3sc4ccc(Cl)cc4c3-c3ccccc3)C2)N1" .
Data returned: 100
